Assay Info: in vivo
Measurement Parameters: male, Swiss Albino, mouse, po, 10 mg/kg, Plasma concentration
Where a SMILES comes first, the peptide text is derived from it. [ ]: non-standard residue; d: D form. dNMeI = CC[C@@H](C)[C@@H](NC)C(=O)O; NMeL = CN[C@@H](CC(C)C)C(=O)O
Parameter Measured: level at 0.5 h (ng/mL)
Report as a plain number; the unit ng/mL is understood.

Query: Any idea what its level at 0.5 h is? The compound is CC[C@@H](C)[C@H]1NC(=O)[C@H]([C@@H](C)CC)NC(=O)[C@H](CC(C)C)N(C)C(=O)[C@H]2CCCN2C(=O)[C@@H]([C@H](C)CC)NC(=O)[C@@H]([C@H](C)CC)N(C)C(=O)[C@H](CC(C)C)NC(=O)[C@H]2CCCN2C(=O)[C@@H]2CCCN2C(=O)[C@H](C(C)C)NC(=O)[C@H]2CCCN2C1=O [Design D11.3, VPpL*iip*LIip] (cyclo(I[dI][dP]VP[dP]L[dNMeI][dI][dP][NMeL]))
Reply: 2520

###

Assay Info: Pharmacokinetics of D10.1 after PO, SQ and IV dosing in mice
Measurement Parameters: female, Balb/C, mouse, plasma, sc, 12.2 mg/kg
Parameter Measured: level at time molar at 24 h (nM)
Report as a plain number; the unit nM is understood.

Query: Any idea what its level at time molar at 24 h is? The compound is `CC[C@H](C)[C@@H]1NC(=O)[C@@H](CC(C)C)NC(=O)[C@H](CC(C)C)N(C)C(=O)[C@H](Cc2ccccc2)NC(=O)CN(C)C(=O)[C@@H]2CCCN2C(=O)[C@H](C(C)C)NC(=O)[C@H](Cc2ccccc2)N(C)C(=O)[C@H]2CCCN2C(=O)[C@H](CC(C)C)NC1=O`
Reply: 10

###

Assay Info: in vivo
Measurement Parameters: male, Swiss Albino, mouse, po, 10 mg/kg, Plasma concentration
Where a SMILES comes first, the peptide text is derived from it. [ ]: non-standard residue; d: D form. dNMeI = CC[C@@H](C)[C@@H](NC)C(=O)O; NMeL = CN[C@@H](CC(C)C)C(=O)O
Parameter Measured: level at 3 h (ng/mL)
Report as a plain number; the unit ng/mL is understood.

Query: Any idea what its level at 3 h is? The molecule is CC[C@@H](C)[C@H]1NC(=O)[C@H]([C@@H](C)CC)NC(=O)[C@H](CC(C)C)N(C)C(=O)[C@H]2CCCN2C(=O)[C@@H]([C@H](C)CC)NC(=O)[C@@H]([C@H](C)CC)N(C)C(=O)[C@H](CC(C)C)NC(=O)[C@H]2CCCN2C(=O)[C@@H]2CCCN2C(=O)[C@H](C(C)C)NC(=O)[C@H]2CCCN2C1=O [Design D11.3, VPpL*iip*LIip] (cyclo(I[dI][dP]VP[dP]L[dNMeI][dI][dP][NMeL]))
Reply: 3500

###

Assay Info: in vivo
Measurement Parameters: male, Swiss Albino, mouse, po, 10 mg/kg, Plasma concentration
Where a SMILES comes first, the peptide text is derived from it. [ ]: non-standard residue; d: D form. dNMeI = CC[C@@H](C)[C@@H](NC)C(=O)O; NMeL = CN[C@@H](CC(C)C)C(=O)O
Parameter Measured: level at 0.25 h
Please answer using a numeric value trailed by its unit.

Query: Any idea what its level at 0.25 h is? The compound is CC[C@@H](C)[C@H]1NC(=O)[C@H]([C@@H](C)CC)NC(=O)[C@H](CC(C)C)N(C)C(=O)[C@H]2CCCN2C(=O)[C@@H]([C@H](C)CC)NC(=O)[C@@H]([C@H](C)CC)N(C)C(=O)[C@H](CC(C)C)NC(=O)[C@H]2CCCN2C(=O)[C@@H]2CCCN2C(=O)[C@H](C(C)C)NC(=O)[C@H]2CCCN2C1=O [Design D11.3, VPpL*iip*LIip] (cyclo(I[dI][dP]VP[dP]L[dNMeI][dI][dP][NMeL]))
Reply: 750 ng/mL

###

Assay Info: in vivo
Measurement Parameters: male, Swiss Albino, mouse, sc, 5 mg/kg, Plasma concentration
Where a SMILES comes first, the peptide text is derived from it. [ ]: non-standard residue; d: D form. dNMeI = CC[C@@H](C)[C@@H](NC)C(=O)O; NMeL = CN[C@@H](CC(C)C)C(=O)O
Parameter Measured: level at 24 h (ng/mL)
Report as a plain number; the unit ng/mL is understood.

Query: Any idea what its level at 24 h is? The compound is CC[C@@H](C)[C@H]1NC(=O)[C@H]([C@@H](C)CC)NC(=O)[C@H](CC(C)C)N(C)C(=O)[C@H]2CCCN2C(=O)[C@@H]([C@H](C)CC)NC(=O)[C@@H]([C@H](C)CC)N(C)C(=O)[C@H](CC(C)C)NC(=O)[C@H]2CCCN2C(=O)[C@@H]2CCCN2C(=O)[C@H](C(C)C)NC(=O)[C@H]2CCCN2C1=O [Design D11.3, VPpL*iip*LIip] (cyclo(I[dI][dP]VP[dP]L[dNMeI][dI][dP][NMeL]))
Reply: 57.6

###

Measurement Parameters: PAMPA
Where a SMILES comes first, the peptide text is derived from it. [ ]: non-standard residue; d: D form. NMeL = CN[C@@H](CC(C)C)C(=O)O; dNMeL = CN[C@H](CC(C)C)C(=O)O; NMeM = CN[C@@H](CCSC)C(=O)O; NMeA = CN[C@@H](C)C(=O)O; dNMeA = CN[C@H](C)C(=O)O
Parameter Measured: PAMPA_Papp_Avg (apparent permeability) (×10⁻⁶ cm/s)
Report as a plain number; the unit ×10⁻⁶ cm/s is understood.

Query: Any idea what its PAMPA_Papp_Avg (apparent permeability) is? The molecule is CC(C)[C@H]1NC(=O)[C@@H]2CCCN2C(=O)[C@@H](C)NC(=O)[C@@H](Cc2ccccc2)NC(=O)[C@@H]2CCCN2C(=O)[C@H](Cc2ccccc2)NC1=O [Design D6.7, faPvFP] (cyclo(FP[dF][dA]P[dV]))
Reply: 0.424

Query: Now the same for CSCC[C@H]1C(=O)N(C)[C@H](C)C(=O)N[C@H](CC(C)C)C(=O)N2CCC[C@@H]2C(=O)N2CCC[C@H]2C(=O)N[C@@H](CC(C)C)C(=O)N2CCC[C@H]2C(=O)N2CCC[C@@H]2C(=O)N[C@H](C(C)C)C(=O)N1C [Design D9.24, pv*M*alpPLP] (cyclo(LP[dP][dV][NMeM][dNMeA][dL][dP]P))
Reply: 0.0869

Query: Now the same for CC(C)C[C@H]1NC(=O)[C@@H]2CCCN2C(=O)[C@@H]2CCCN2C(=O)[C@@H](C)NC(=O)[C@@H](Cc2ccccc2)NC(=O)[C@H]2CCCN2C1=O [Design D6.3, pfaPpl] (cyclo(PP[dL][dP][dF][dA]))
Reply: 1.99

Query: Now the same for CC(C)C[C@@H]1C(=O)N[C@@H](C)C(=O)N[C@H](CC(C)C)C(=O)N(C)[C@@H](C)C(=O)N2CCC[C@@H]2C(=O)N2CCC[C@@H]2C(=O)N2CCC[C@@H]2C(=O)N2CCC[C@H]2C(=O)N[C@H](C(C)C)C(=O)N(C)[C@@H](CC(C)C)C(=O)N1C [Design D10.28, l*ApppPv*L*lA] (cyclo([dV][NMeL][dNMeL]A[dL][NMeA][dP][dP][dP]P))
Reply: 0.184

###

Assay Info: Pharmacokinetics of D10.1 after PO, SQ and IV dosing in mice
Measurement Parameters: mouse, in vivo
Parameter Measured: bioavailability

Query: Any idea what its bioavailability is? The compound is CC[C@H](C)[C@@H]1NC(=O)[C@@H](CC(C)C)NC(=O)[C@H](CC(C)C)N(C)C(=O)[C@H](Cc2ccccc2)NC(=O)CN(C)C(=O)[C@@H]2CCCN2C(=O)[C@H](C(C)C)NC(=O)[C@H](Cc2ccccc2)N(C)C(=O)[C@H]2CCCN2C(=O)[C@H](CC(C)C)NC1=O [Design D10.1, lILp*FVP*GF*L]
Reply: 7.5 to 11%

###

Assay Info: in vivo
Measurement Parameters: male, Swiss Albino, mouse, po, 10 mg/kg, Plasma concentration
Where a SMILES comes first, the peptide text is derived from it. [ ]: non-standard residue; d: D form. dNMeI = CC[C@@H](C)[C@@H](NC)C(=O)O; NMeL = CN[C@@H](CC(C)C)C(=O)O
Parameter Measured: level at 0.08 h (ng/mL)
Report as a plain number; the unit ng/mL is understood.

Query: Any idea what its level at 0.08 h is? The molecule is CC[C@@H](C)[C@H]1NC(=O)[C@H]([C@@H](C)CC)NC(=O)[C@H](CC(C)C)N(C)C(=O)[C@H]2CCCN2C(=O)[C@@H]([C@H](C)CC)NC(=O)[C@@H]([C@H](C)CC)N(C)C(=O)[C@H](CC(C)C)NC(=O)[C@H]2CCCN2C(=O)[C@@H]2CCCN2C(=O)[C@H](C(C)C)NC(=O)[C@H]2CCCN2C1=O [Design D11.3, VPpL*iip*LIip] (cyclo(I[dI][dP]VP[dP]L[dNMeI][dI][dP][NMeL]))
Reply: 69.6
